B1: Neutrophil cytosol factor 2, residues 456 to 514; numbered along this chain, P19878 (parent)
chain: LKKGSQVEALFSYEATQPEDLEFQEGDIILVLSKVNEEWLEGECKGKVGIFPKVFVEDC

- Variants of: B1
- procedure details: abundance fitness (aPCA) (normalised: wild type 0, dead -1); higher = more abundant; growth selection in yeast, the domain comes from the species named
- conditions: Homo sapiens
Classification field. Basis: abundance fitness. Definitions: low (below -0.4), mid (-0.4 to below -0.02), high (-0.02 or more)

| residue sequence | category label |
| --- | --- |
| LKKGSQVEALFSYEATQPNDLEFQEGDIILVLSKVNEEWLEGECKGKVGIFPKVFVEDC [E19N] | high |
| LKKGSQVEALFSYEATQPEDLEFQEGDIILVLSLVNEEWLEGECKGKVGIFPKVFVEDC [K34L] | low |
| LKKGSQVEALRSYEATQPEDLEFQEGDIILVLSKVNEEWLEGECKGKVGIFPKVFVEDC [F11R] | high |
| LKKGSQVEALFSYEATQPEDLEFQEGDKILVLSKVNEEWLEGECKGKVGIFPKVFVEDC [I28K] | high |
| LKKGSQVENLFSYEATQPEDLEFQEGDIILVLSKVNEEWLEGECKGKVGIFPKVFVEDC [A9N] | low |
| LKKGSQVEALFSYEATQPEDLEFQEGDIILVLSKVNEEWLWGECKGKVGIFPKVFVEDC [E41W] | mid |
| LKKGSQVEALFSYEATQPEDLEFDEGDIILVLSKVNEEWLEGECKGKVGIFPKVFVEDC [Q24D] | high |
| LKKGSQVEALFSYEATQPEDLENQEGDIILVLSKVNEEWLEGECKGKVGIFPKVFVEDC [F23N] | mid |
| LKKGSQVEALFSREATQPEDLEFQEGDIILVLSKVNEEWLEGECKGKVGIFPKVFVEDC [Y13R] | high |
| LKKGQQVEALFSYEATQPEDLEFQEGDIILVLSKVNEEWLEGECKGKVGIFPKVFVEDC [S5Q] | mid |
| LKKGSQVEALFSYEATQPEDLEFQEGDIILVLSKVNEEWLEGECKGMVGIFPKVFVEDC [K47M] | low |
| LKKGSQVEALFSYEATYPEDLEFQEGDIILVLSKVNEEWLEGECKGKVGIFPKVFVEDC [Q17Y] | mid |
| LKKGSQVEALFSYEFTQPEDLEFQEGDIILVLSKVNEEWLEGECKGKVGIFPKVFVEDC [A15F] | low |
| LKKGSQVEALFSYECTQPEDLEFQEGDIILVLSKVNEEWLEGECKGKVGIFPKVFVEDC [A15C] | mid |
| LKKGSQVEALFGYEATQPEDLEFQEGDIILVLSKVNEEWLEGECKGKVGIFPKVFVEDC [S12G] | mid |
| LKKGSQVEALFSYEATQPEDLEFQEGDIILVLSKVNEEWLEGECKGKVGIFPKEFVEDC [V54E] | mid |
| LKKKSQVEALFSYEATQPEDLEFQEGDIILVLSKVNEEWLEGECKGKVGIFPKVFVEDC [G4K] | mid |
| LKKGSQVEPLFSYEATQPEDLEFQEGDIILVLSKVNEEWLEGECKGKVGIFPKVFVEDC [A9P] | high |
| LKKGSQVEALFSYEATQREDLEFQEGDIILVLSKVNEEWLEGECKGKVGIFPKVFVEDC [P18R] | mid |
| LKKGSQVEALFSYEATQPLDLEFQEGDIILVLSKVNEEWLEGECKGKVGIFPKVFVEDC [E19L] | high |
